Multi-source literature compilation: log10(Ki) on Alpha-1D adrenergic receptor (Homo sapiens, UniProt P25100).
Sequence (P25100 whole entry): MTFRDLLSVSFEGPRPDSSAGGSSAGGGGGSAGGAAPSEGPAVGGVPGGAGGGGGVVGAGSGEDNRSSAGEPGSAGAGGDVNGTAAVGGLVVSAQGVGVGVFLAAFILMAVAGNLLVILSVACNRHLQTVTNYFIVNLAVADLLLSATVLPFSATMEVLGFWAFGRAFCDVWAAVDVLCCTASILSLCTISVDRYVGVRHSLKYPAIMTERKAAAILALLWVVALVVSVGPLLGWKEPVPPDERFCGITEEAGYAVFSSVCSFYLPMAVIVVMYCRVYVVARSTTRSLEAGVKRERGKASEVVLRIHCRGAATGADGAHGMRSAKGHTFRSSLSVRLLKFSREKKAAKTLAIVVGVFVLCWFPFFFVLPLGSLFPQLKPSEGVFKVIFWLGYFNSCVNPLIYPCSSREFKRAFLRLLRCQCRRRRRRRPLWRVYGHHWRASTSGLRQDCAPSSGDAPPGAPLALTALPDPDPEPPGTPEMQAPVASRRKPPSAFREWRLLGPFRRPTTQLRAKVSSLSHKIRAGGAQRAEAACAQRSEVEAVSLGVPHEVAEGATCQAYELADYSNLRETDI
Readout: log10(Ki) (log10 of the value in nM)

Compound	Target under test	Reported
COc1ccc(OC)c(S(=O)(=O)N[C@H]2CC[C@@H](N3CCN(c4ccccc4OC(C)C)CC3)CC2)c1	Alpha-1D adrenergic receptor (Homo sapiens, UniProt P25100)	0.71
COc1cc2nc(N3CCN(C(=O)c4ccco4)[C@@H]4CCCC[C@@H]43)nc(N)c2cc1OC	Alpha-1D adrenergic receptor (Homo sapiens, UniProt P25100)	0.51
CC(CN1CCN(c2cc(Cl)ccc2Cl)CC1)N1C(=O)CC2(CCCC2)CC1=O (centres undefined)	Alpha-1D adrenergic receptor (Homo sapiens, UniProt P25100)	-0.39
COc1ccccc1N1CCN(CCN(C(=O)C23C4C5C2C2C3C4C52I)c2ccccn2)CC1 (centres undefined)	Alpha-1D adrenergic receptor (Homo sapiens, UniProt P25100)	1.99
COc1ccccc1OCCNC[C@@H]1CO[C@H](C(c2ccccc2)c2ccccc2)O1 (relative stereo)	Alpha-1D adrenergic receptor (Homo sapiens, UniProt P25100)	0.64
COCC1=C(C(=O)OC)[C@H](c2ccc(F)c(F)c2)N(C(=O)N[C@H]2CC[C@@H](N3CCC(c4ccccn4)CC3)C2)C(=O)N1	Alpha-1D adrenergic receptor (Homo sapiens, UniProt P25100)	2.74
CN(CCCOc1cc(Cl)ccc1Cl)CCN1C(=O)CC2(CCCC2)CC1=O	Alpha-1D adrenergic receptor (Homo sapiens, UniProt P25100)	2.04
COc1ccccc1OCCNCC1CSC(c2ccccc2)(c2ccccc2)O1 (racemic)	Alpha-1D adrenergic receptor (Homo sapiens, UniProt P25100)	0.82
CO/C(O)=C1\C(C)=NC(C)=C(C(=O)NCCN2CCC(c3ccccc3)(c3ccccc3)CC2)C1c1ccc([N+](=O)[O-])cc1 (centres undefined)	Alpha-1D adrenergic receptor (Homo sapiens, UniProt P25100)	3.06
CO/C(O)=C1\C(C)=NC(C)=C(C(=O)NCCCN2CCC(c3ccccc3)(c3ccccc3)CC2)C1c1ccc([N+](=O)[O-])c(OC)c1 (centres undefined)	Alpha-1D adrenergic receptor (Homo sapiens, UniProt P25100)	2.50
CO/C(O)=C1\C(C)=NC(C)=C(C(=O)NCCCN2CCC(c3ccccc3)(c3ccccc3)CC2)C1c1ccc2ccccc2c1 (centres undefined)	Alpha-1D adrenergic receptor (Homo sapiens, UniProt P25100)	2.87
CC1CN(c2ccccc2[N+](=O)[O-])CCN1CCN1C(=O)CC2(CCCC2)CC1=O (centres undefined)	Alpha-1D adrenergic receptor (Homo sapiens, UniProt P25100)	2.78
COc1ccc(N2C(=O)c3ccc(C(=O)NCCCN4CCN(c5ccccc5OC(C)C)CC4)cc3C2=O)cc1	Alpha-1D adrenergic receptor (Homo sapiens, UniProt P25100)	1.20
COc1cccc(N2CCN(CCN3C(=O)CC4(CCCC4)CC3=O)CC2)c1	Alpha-1D adrenergic receptor (Homo sapiens, UniProt P25100)	1.73
OCC(CNCCOc1ccccc1)OC(c1ccccc1)c1ccccc1 (centres undefined)	Alpha-1D adrenergic receptor (Homo sapiens, UniProt P25100)	1.76
O=C1CC2(CCCC2)CC(=O)N1CCN1CCN(c2ccccc2Br)CC1	Alpha-1D adrenergic receptor (Homo sapiens, UniProt P25100)	0.20
Cc1nc2c([nH]c3ccccc32)c(=O)n1CCN1CCN(c2ccc(Cl)c(Cl)c2)CC1	Alpha-1D adrenergic receptor (Homo sapiens, UniProt P25100)	0.87
N#Cc1cc(Cl)cc(Cn2cc(Cl)cc(C(N)=O)c2=N)c1	Alpha-1D adrenergic receptor (Homo sapiens, UniProt P25100)	-0.07
Oc1cccc(O)c1OCCNCCOc1ccccc1OCc1ccccc1	Alpha-1D adrenergic receptor (Homo sapiens, UniProt P25100)	1.18
COCC1=C(C(=O)OC)C(c2ccc(F)c(F)c2)N(C(=O)N2CCC(N3CCC(C(=O)OC)(c4ccccc4)CC3)CC2)C(=O)N1 (centres undefined)	Alpha-1D adrenergic receptor (Homo sapiens, UniProt P25100)	3.72
CC(C)Oc1ccccc1N1CCN(CCCNC(=O)c2ccc3c(c2)C(=O)N(c2ccc(N(C)C)cc2)C3=O)CC1	Alpha-1D adrenergic receptor (Homo sapiens, UniProt P25100)	1.18
O=C1CC2(CCCC2)CC(=O)N1CCN1CCN(c2ccc(F)cc2)CC1	Alpha-1D adrenergic receptor (Homo sapiens, UniProt P25100)	1.38
COc1cccc(OC)c1OCCNC[C@@H]1COc2cccc(OC)c2O1	Alpha-1D adrenergic receptor (Homo sapiens, UniProt P25100)	1.22
COc1cccc(C2CCC(N3CCN(c4ccccc4OC)CC3)CC2)c1 (stereo in doubt; trans)	Alpha-1D adrenergic receptor (Homo sapiens, UniProt P25100)	0.65
